# assay overview: Blood, brain and hypothalamus distribution after single intragastric dose
# Format: in vivo, Wistar rats
# condition context: both sexes, Wistar, rat, brain, oral; rats, toludesvenlafaxine 8 mg/kg intragastric, 1 h; read-out: Brain concentration
property name: concentration at 1 h (ng/g)
Value expressed in ng/g; do not type the unit.

// query Output concentration at 1 h of CN(C)CC(c1ccc(O)cc1)C1(O)CCCCC1 (stereo not shown) [ODV, O-desmethylvenlafaxine]
// result 20.9

* * *

# assay overview: Blood, brain and hypothalamus distribution after single intragastric dose
# Assay type: in vivo, Wistar rats
# condition context: both sexes, Wistar, rat, blood, oral; rats, toludesvenlafaxine 8 mg/kg intragastric, 1 h; read-out: Blood concentration
property name: concentration at 1 h (ng/mL)
Value expressed in ng/mL; do not type the unit.

// query Output concentration at 1 h of CN(C)CC(c1ccc(O)cc1)C1(O)CCCCC1 (stereo not shown) [ODV, O-desmethylvenlafaxine]
// result 68.2
